# System: SW 1271 complex spheroids, viability
# experiment-summary: Anticancer human tumor SW 1271 cell line growth inhibition [LSD1]; active means viability on the fitted dose curve at most 10% of control; inactive means the rest;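 further: spheroids exposed to agents for 7 days before luminescence read; 100% = DMSO vehicle control viability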
# stated-conditions: second compound 3.16 µM; first compound 3 µM
# Text: Multicellular complex tumor spheroid response to LSD1 Inhibitor Iadademstat in combination with a variety of drugs and investigational agents in selected tumor cell lines The current study was undertaken to assess response to LSD1 inhibitors in combination with standard-of-care drugs and investigational agents in solid tumor complex spheroid models as well as in the K-562 leukemia. […] Compounds. […] If the clinical Cmax for an agent had not been determined, the highest concentration tested was 10 microM. […]
Please state which outcome applies, choosing from TRUE (active), FALSE (inactive)

// below: answered molecules
[[record]]
molecule = "Nc1ccccc1NC(=O)c1ccc(CNC(=O)OCc2cccnc2)cc1 + NC1CCC(NC2CC2c2ccccc2)CC1"
tested_target = "SW 1271 complex spheroids, viability"
label_class = "TRUE"

[[record]]
molecule = "NS(=O)(=O)OCC1CC(n2ccc3c(NC4CCc5ccccc54)ncnc32)CC1O (configuration not stated) + NC1CC1c1ccc(-c2cccc(O)c2)cc1"
tested_target = "SW 1271 complex spheroids, viability"
label_class = "FALSE"

[[record]]
molecule = "CCN(c1cc(-c2ccc(CN3CCOCC3)cc2)cc(C(=O)NCc2c(C)cc(C)[nH]c2=O)c1C)C1CCOCC1 + NC1CC1c1ccc(-c2cccc(O)c2)cc1"
tested_target = "SW 1271 complex spheroids, viability"
label_class = "FALSE"

[[record]]
molecule = "COc1cc(C2c3cc4c(cc3C(OC3OC5COC(C)OC5C(O)C3O)C3COC(=O)C23)OCO4)cc(OC)c1O (configuration not stated) + NC1CC1c1ccc(-c2cccc(O)c2)cc1"
tested_target = "SW 1271 complex spheroids, viability"
label_class = "FALSE"

[[record]]
molecule = "Nc1ccccc1NC(=O)c1ccc(CNC(=O)OCc2cccnc2)cc1 + NC1CC1c1ccc(-c2cccc(O)c2)cc1"
tested_target = "SW 1271 complex spheroids, viability"
label_class = "TRUE"


**Q:** Query: recorded result category for O=C(C=Cc1cccc(S(=O)(=O)Nc2ccccc2)c1)NO + NC1CC1c1ccc(-c2cccc(O)c2)cc1 in this test
**A:** TRUE

**Q:** Follow-up entry: O=C(C=Cc1cccc(S(=O)(=O)Nc2ccccc2)c1)NO + NC1CCC(NC2CC2c2ccccc2)CC1
**A:** FALSE

---

# Tested on: SW 1271 complex spheroids, viability
# experiment-summary: Anticancer human tumor SW 1271 cell line growth inhibition [LSD1];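 further: spheroids exposed to agents for 7 days before luminescence read; 100% = DMSO vehicle control viability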
# stated-conditions: second compound 0.1 µM; first compound 0.00949 µM; stronger effect = lower value
# Text: Multicellular complex tumor spheroid response to LSD1 Inhibitor Iadademstat in combination with a variety of drugs and investigational agents in selected tumor cell lines The current study was undertaken to assess response to LSD1 inhibitors in combination with standard-of-care drugs and investigational agents in solid tumor complex spheroid models as well as in the K-562 leukemia. […] Compounds. […] If the clinical Cmax for an agent had not been determined, the highest concentration tested was 10 microM. […]
Label scheme, based on viability, T/C: group 1 (below 70%), group 2 (70% to below 90%), group 3 (90% or more)

// below: answered compounds
[[record]]
compound = "CCc1c2c(nc3ccc(O)cc13)-c1cc3c(c(=O)n1C2)COC(=O)[C@]3(O)CC + NC1CC1c1ccc(-c2cccc(O)c2)cc1"
label_class = "group 1"

[[record]]
compound = "COc1cc(C2c3cc4c(cc3C(OC3OC5COC(C)OC5C(O)C3O)C3COC(=O)C23)OCO4)cc(OC)c1O (stereo unspecified) + NC1CC1c1ccc(-c2cccc(O)c2)cc1"
label_class = "group 2"

[[record]]
compound = "CCN(c1cc(-c2ccc(CN3CCOCC3)cc2)cc(C(=O)NCc2c(C)cc(C)[nH]c2=O)c1C)C1CCOCC1 + NC1CC1c1ccc(-c2cccc(O)c2)cc1"
label_class = "group 2"


**Q:** Exercise: read the entry O=C(C=Cc1cccc(S(=O)(=O)Nc2ccccc2)c1)NO + NC1CC1c1ccc(-c2cccc(O)c2)cc1 and state which class it falls under.
**A:** group 2

**Q:** Follow-up entry: CCc1c2c(nc3ccc(O)cc13)-c1cc3c(c(=O)n1C2)COC(=O)[C@]3(O)CC + NC1CCC(NC2CC2c2ccccc2)CC1
**A:** group 1

**Q:** Follow-up entry: Nc1ccn(C2OC(CO)C(O)C2(F)F)c(=O)n1 (stereo unspecified) + NC1CC1c1ccc(-c2cccc(O)c2)cc1
**A:** group 1

**Q:** Follow-up entry: Nc1ccn(C2OC(CO)C(O)C2(F)F)c(=O)n1 (stereo unspecified) + NC1CCC(NC2CC2c2ccccc2)CC1
**A:** group 1

**Q:** Follow-up entry: NS(=O)(=O)OCC1CC(n2ccc3c(NC4CCc5ccccc54)ncnc32)CC1O (stereo unspecified) + NC1CCC(NC2CC2c2ccccc2)CC1
**A:** group 3

**Q:** Follow-up entry: Nc1ncn(C2CC(O)C(CO)S2)c(=O)n1 (stereo unspecified) + NC1CC1c1ccc(-c2cccc(O)c2)cc1
**A:** group 2

**Q:** Follow-up entry: Nc1ccccc1NC(=O)c1ccc(CNC(=O)OCc2cccnc2)cc1 + NC1CC1c1ccc(-c2cccc(O)c2)cc1
**A:** group 2

**Q:** Follow-up entry: COc1cc(C2c3cc4c(cc3C(OC3OC5COC(C)OC5C(O)C3O)C3COC(=O)C23)OCO4)cc(OC)c1O (stereo unspecified) + NC1CCC(NC2CC2c2ccccc2)CC1
**A:** group 2

**Q:** Follow-up entry: NS(=O)(=O)OCC1CC(n2ccc3c(NC4CCc5ccccc54)ncnc32)CC1O (stereo unspecified) + NC1CC1c1ccc(-c2cccc(O)c2)cc1
**A:** group 3

**Q:** Follow-up entry: CCN(c1cc(-c2ccc(CN3CCOCC3)cc2)cc(C(=O)NCc2c(C)cc(C)[nH]c2=O)c1C)C1CCOCC1 + NC1CCC(NC2CC2c2ccccc2)CC1
**A:** group 3

The origin of these recorded values is PubChem BioAssay AID1918941.
